- System: HCC-366
- assay_details: relative viability (nuclei count vs DMSO), 5 days (fraction); higher = more cells survive
- condition_set: first compound 0.01 µM
Recorded measurements of relative viability, one per entry
In your answer, state the number alone without any accompanying words.

Below, each entry is followed by its recorded relative viability result.
INSERT INTO results (molecule, result_number) VALUES
  ('O=c1cc(N2CCOCC2)oc2c(-c3cccc4c3sc3ccccc34)cccc12 + O=C(CCCCCCC(=O)Nc1ccccc1)NO [Vorinostat] (partner 1 µM)', 0.386),
  ('O=c1cc(N2CCOCC2)oc2c(-c3cccc4c3sc3ccccc34)cccc12 + CC(C)C[C@H](NC(=O)[C@H](Cc1ccccc1)NC(=O)c1cnccn1)B(O)O [Bortezomib] (partner 0.002 µM)', 1.09),
  ('O=c1cc(N2CCOCC2)oc2c(-c3cccc4c3sc3ccccc34)cccc12 + Nc1nc2[nH]cc(CCc3ccc(C(=O)N[C@@H](CCC(=O)O)C(=O)O)cc3)c2c(=O)[nH]1 [Pemetrexed] (partner 0.2 µM)', 0.159),
  ('CCN(CC)CCCCNc1ncc2cc(-c3cc(OC)cc(OC)c3)c(NC(=O)NC(C)(C)C)nc2n1 + CC(=O)c1c(C)c2cnc(Nc3ccc(N4CCNCC4)cn3)nc2n(C2CCCC2)c1=O [Palbociclib] (partner 0.5 µM)', 0.364),
  ('CCN(CC)CCCCNc1ncc2cc(-c3cc(OC)cc(OC)c3)c(NC(=O)NC(C)(C)C)nc2n1 + CS(=O)(=O)CCNCc1ccc(-c2ccc3ncnc(Nc4ccc(OCc5cccc(F)c5)c(Cl)c4)c3c2)o1 [Lapatinib] (partner 2 µM)', 1.05),
  ('O=c1cc(N2CCOCC2)oc2c(-c3cccc4c3sc3ccccc34)cccc12 + C[C@]1(O)C[C@@H](c2nc(-c3ccc4ccc(-c5ccccc5)nc4c3)c3c(N)nccn32)C1 [Linsitinib] (partner 1 µM)', 0.671),
  ('O=c1cc(N2CCOCC2)oc2c(-c3cccc4c3sc3ccccc34)cccc12 + CC(=O)Nc1cccc(-n2c(=O)n(C3CC3)c(=O)c3c(Nc4ccc(I)cc4F)n(C)c(=O)c(C)c32)c1 [Trametinib] (partner 0.02 µM)', 0.411),
  ('CCN(CC)CCCCNc1ncc2cc(-c3cc(OC)cc(OC)c3)c(NC(=O)NC(C)(C)C)nc2n1 + Cc1nc(NC(=O)N2CCC[C@H]2C(N)=O)sc1-c1ccnc(C(C)(C)C(F)(F)F)c1 [Alpelisib] (partner 2 µM)', 0.385);

Q) // Input: CCN(CC)CCCCNc1ncc2cc(-c3cc(OC)cc(OC)c3)c(NC(=O)NC(C)(C)C)nc2n1 + COc1cc2c(Oc3ccc(NC(=O)C4(C(=O)Nc5ccc(F)cc5)CC4)cc3F)ccnc2cc1OCCCN1CCOCC1 [Foretinib] (partner 0.25 µM) . Output its relative viability only.
A) 0.951

Cited source for all entries: the supplement of paper PMC10307832
